Sourced from patent US20230235004A1

MEASURED_TARGET: T1, human MAdCAM expressed on cells (human, UniProt Q13477 19-382)
T1 construct: whole, on cells
T1 sequence (looked up): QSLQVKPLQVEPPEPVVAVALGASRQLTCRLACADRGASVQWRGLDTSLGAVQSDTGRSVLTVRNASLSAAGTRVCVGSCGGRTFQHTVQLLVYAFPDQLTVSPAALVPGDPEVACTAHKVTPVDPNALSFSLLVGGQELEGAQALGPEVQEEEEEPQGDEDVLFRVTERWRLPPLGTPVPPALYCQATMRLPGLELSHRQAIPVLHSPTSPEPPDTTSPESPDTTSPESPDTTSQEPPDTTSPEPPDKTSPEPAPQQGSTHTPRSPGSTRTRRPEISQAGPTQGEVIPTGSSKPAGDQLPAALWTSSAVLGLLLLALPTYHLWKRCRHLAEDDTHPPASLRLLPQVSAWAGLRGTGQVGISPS
EXPERIMENT_DESCRIPTION: cell binding

{"BINDER": "MAdCAM antibody Table 1 clone 14 (scFv) scFv: QVQLVQSGAEVKKPGSSVKVSCKASGYTFTDYHIHWVRQAPGQGLEWMGGIVPRSGSTTYAQKFQGRVTITADESTSTAYMELSSLRSEDTAVYYCAKDESSGWYYFDYWGQGTLVTVSSGGGGSGGGGSGGGGSGGGGSDIVMTQSPLSLPVTPGEPASISCRSSQSLLHSNGYNYLDWYLQKPGQSPQLLIYSAYNRASGVPDRFSGSGSGTDFTLKISRVEAEDVGVYYCMQALQTPLTFGQGTKVEIK", "binding result": "binds"}
{"BINDER": "MAdCAM antibody Table 1 clone 21 (scFv) scFv: EVQLLESGGGLVQPGGSLRLSCAASGFTFSNAWMSWVRQAPGKGLEWVSTIVGNGGATYYADSVKGRFTISRDNSKNTLYLQMNSLRAEDTAVYYCARDNPLRWQGMDVWGQGTLVTVSSGGGGSGGGGSGGGGSGGGGSDIQMTQSPSSLSASVGDRVTITCRASQDISNYLNWYQQKPGKAPKLLIYAASSLQSGVPSRFSGSGSGTDFTLTISSLQPEDFATYYCQQSYSIPPTFGPGTKVDIK", "binding result": "binds"}
